Test system: Tetrahymena pyriformis
protocol_notes: 48 h IGC50 (-log10 mol/L); higher = more toxic
For each of the compounds below, state its 48 h IGC50 (-log10 mol/L).

Observed 48 h IGC50 (-log10 mol/L) on Tetrahymena pyriformis, entry `Oc1cc(Cl)ccc1Cl` , equals 4.13

Known value: Tetrahymena pyriformis 48 h IGC50 (-log10 mol/L) of the compound `CCC(O)(CC)C(C)(C)C` equals 2.83

The compound `C=CC(=O)CCCCC` on Tetrahymena pyriformis: 48 h IGC50 (-log10 mol/L) was 4.92

Value (48 h IGC50 (-log10 mol/L), Tetrahymena pyriformis) for record CCCCCCCCC(C)O (centres undefined) = 3.99

Tested system Tetrahymena pyriformis; 48 h IGC50 (-log10 mol/L) recorded for `OCCCl` was 1.58

Param item: CC(O)Cc1ccccc1 (centres undefined) ; param system: Tetrahymena pyriformis; output 48 h IGC50 (-log10 mol/L): 2.38

Readout 48 h IGC50 (-log10 mol/L) for `CCNC(N)=S` , test system Tetrahymena pyriformis, was 1.87

Fill in: Tetrahymena pyriformis 48 h IGC50 (-log10 mol/L) for CC(N)c1ccccc1 (centres undefined) = 2.82

GET /values?item= `O=[N+]([O-])c1c(Cl)ncnc1Cl` &system= Tetrahymena pyriformis returns 48 h IGC50 (-log10 mol/L): 5.12

GET /values?item= `N#C/C=C/c1ccco1` &system= Tetrahymena pyriformis returns 48 h IGC50 (-log10 mol/L): 2.69

Readout 48 h IGC50 (-log10 mol/L) for `CC(C)(C)C(=O)CCl` , test system Tetrahymena pyriformis, was 4.27

The recorded 48 h IGC50 (-log10 mol/L) with Tetrahymena pyriformis for `O=C(O)CCBr` was 2.96

// compound `CCCCCOCCCCC` , assay Tetrahymena pyriformis, 48 h IGC50 (-log10 mol/L) value: 4.09

`O=[N+]([O-])c1ccc(F)c(F)c1F` tested on Tetrahymena pyriformis gave 48 h IGC50 (-log10 mol/L): 4.89

Item `OC1Cc2ccccc2C1` ; assay system Tetrahymena pyriformis; 48 h IGC50 (-log10 mol/L) reported as 2.31

Item `COc1cccc(C#N)c1` was tested on Tetrahymena pyriformis; the reported 48 h IGC50 (-log10 mol/L) is 3.01

// assay Tetrahymena pyriformis, entry `CC1=CCCC1=O` , 48 h IGC50 (-log10 mol/L) value = 2.17

Assay Tetrahymena pyriformis, sample `O=C(CBr)c1ccsc1` , 48 h IGC50 (-log10 mol/L) read: 5.22

Result for `C=CC(C)(C)O` , tested on Tetrahymena pyriformis, 48 h IGC50 (-log10 mol/L): 1.61

* * *

Test system: Tetrahymena pyriformis
protocol_notes: 48 h IGC50 (-log10 mol/L); higher = more toxic
reported_property: 48 h IGC50 (-log10 mol/L)
Form: value (number only, do not type unit).

Kindly note the recorded 48 h IGC50 (-log10 mol/L) for `C=CCOC(=O)C(=C)C` , which is 2.32

Record `CC(C)CC(=O)OCCc1ccccc1` . Reported 48 h IGC50 (-log10 mol/L): 4.1

Query `CC(=O)c1ccc(C)[nH]1` yields 48 h IGC50 (-log10 mol/L) of 2.17

Summary for this compound, `O=[N+]([O-])c1cccnc1SCc1ccccc1` : 48 h IGC50 (-log10 mol/L) is 4.72

Record `CN(C)c1ccccn1` . Reported 48 h IGC50 (-log10 mol/L): 2.45

Lab note: measured 48 h IGC50 (-log10 mol/L) of `N#CCCC#N` was 1.18

// sample `ClC(Cl)(Cl)Cl` , its 48 h IGC50 (-log10 mol/L) was 2.98

48 h IGC50 (-log10 mol/L) in this record for `CC(C)(C)c1ccc(CO)cc1` : 3.48

* * *

Consider the following compounds; for each one, report its 48 h IGC50 (-log10 mol/L).
Test system: Tetrahymena pyriformis
protocol_notes: 48 h IGC50 (-log10 mol/L); higher = more toxic
Quick one: just the number, no unit, thanks!

// field: 48 h IGC50 (-log10 mol/L); key: `Cc1cccc([N+](=O)[O-])c1` ; value = 3.42

The compound `CCCCOC(=O)/C=C/C(=O)OCCCC` showed 48 h IGC50 (-log10 mol/L) equal to 4.49

Sure, the documented 48 h IGC50 (-log10 mol/L) for `Clc1cccc(Cl)c1` is 3.56

48 h IGC50 (-log10 mol/L) reading for `Oc1ccc(Cl)cc1Cc1cc(Cl)ccc1O` : 6.09

// recorded 48 h IGC50 (-log10 mol/L) for `N#CCCBr` : 2.5

Form: compound = `C=CCS(=O)(=O)c1ccccc1` ; 48 h IGC50 (-log10 mol/L) = 3.31

Consider `C=CC(=O)OCCC` . Its measured 48 h IGC50 (-log10 mol/L) is 3.53

Summary for this compound, `O=C1CCCO1` : 48 h IGC50 (-log10 mol/L) is 1.28

Sample `Nc1cc(Cl)c([N+](=O)[O-])cc1O` ; 48 h IGC50 (-log10 mol/L) observed: 4.17

response.value for `O=[N+]([O-])c1ccc(Cl)cc1Cl` (field: 48 h IGC50 (-log10 mol/L)) = 3.99

Notebook: `O=Nc1ccc(O)cc1` , 48 h IGC50 (-log10 mol/L) read as 3.65

The recorded 48 h IGC50 (-log10 mol/L) for entry `CCCCCCCCCl` equals 3.67

Record `CCCCCCNC(N)=S` . Reported 48 h IGC50 (-log10 mol/L): 3.86

GET /value?item= `CC(=O)CC(=O)c1ccccc1` &field=48 h IGC50 (-log10 mol/L) returns 3.57

Notebook: `C/C=C/C(=O)CC` , 48 h IGC50 (-log10 mol/L) read as 3.92

# 48 h IGC50 (-log10 mol/L) (compound: `Cc1cccc(Cl)n1` ) is 2.52

* * *

Test system: Tetrahymena pyriformis
protocol_notes: 48 h IGC50 (-log10 mol/L); higher = more toxic
reported_property: 48 h IGC50 (-log10 mol/L)
# print the numeric value only

// field: 48 h IGC50 (-log10 mol/L); key: `N#CSCc1ccccc1` ; value = 4.05

48 h IGC50 (-log10 mol/L) recorded for this compound, `CC1=CC(=O)c2ccccc2C1=O` , is 4.54

// 48 h IGC50 (-log10 mol/L) lookup, compound = `O=Cc1ccc[nH]1` , result: 2.52

Query `CCCCC(C)=O` yields 48 h IGC50 (-log10 mol/L) of 1.66

48 h IGC50 (-log10 mol/L) reading for `Cc1cc(C)cc(N)c1` : 2.64

Summary for this compound, `CCCCS(=O)CCCC` : 48 h IGC50 (-log10 mol/L) is 2.74

Reported 48 h IGC50 (-log10 mol/L) ( `CCc1ccc(C)nc1` ) = 2.82

Recorded 48 h IGC50 (-log10 mol/L) (compound `COc1ccc(CO)cc1O` ): 2.01

Given item `Cc1ccc(CN)cc1` , the value recorded as its 48 h IGC50 (-log10 mol/L) is 2.99

* * *

System: Daphnia magna
protocol_notes: 48 h LC50 (-log10 mol/L); higher = more toxic
Kindly return 1 if reported 48 h LC50 (-log10 mol/L) is no lower than 4; return -1 if it is lower.

Would you say `CCOP(=S)(OCC)SCSC(C)(C)C` shows 48 h LC50 (-log10 mol/L) at minimum 4?
1

For this compound, is measured 48 h LC50 (-log10 mol/L) 4 or higher? CCCC1O[C@@H]2C[C@H]3[C@@H]4CCC5=CC(=O)C=C[C@]5(C)[C@H]4[C@@H](O)C[C@]3(C)[C@]2(C(=O)CO)O1 (stereo not given in full)
1

Please tell me: is the compound `Clc1ccc(-c2ccccc2)cc1` at or over 4 in terms of 48 h LC50 (-log10 mol/L)?
1

Please check the record `COc1c(Cl)c(Cl)c(Cl)c(Cl)c1Cl` and state if its 48 h LC50 (-log10 mol/L) is at or above 4.
1

Reported 48 h LC50 (-log10 mol/L) reaches at least 4 for CC(C)=CC1C(C(=O)OCc2cccc(Oc3ccccc3)c2)C1(C)C (stereo not given) ?
1

Please check the record `CCNC(=S)Nc1ccccc1` and state if its 48 h LC50 (-log10 mol/L) is at or above 4.
-1

Determine whether measured 48 h LC50 (-log10 mol/L) meets or exceeds 4 for CC(Cc1ccc(C(C)(C)C)cc1)CN1CCCCC1 (stereo not given)
1

Is it the case that `C=CC#N` has 48 h LC50 (-log10 mol/L) reaching or exceeding 4?
-1

Record `Cc1ccccc1` ; criterion: 48 h LC50 (-log10 mol/L) no lower than 4. Met?
-1

Could you verify whether the entry `CN(C)[C@@H]1C(=O)C(C(N)=O)=C(O)[C@@]2(O)C(=O)C3=C(O)c4c(O)ccc(Cl)c4[C@@](C)(O)[C@H]3C[C@@H]12` shows 48 h LC50 (-log10 mol/L) of no less than 4?
-1

Can `CCOC(=O)CC` be said to have 48 h LC50 (-log10 mol/L) at or above 4?
-1

Exam item: decide whether the reported 48 h LC50 (-log10 mol/L) for `COc1c(C(C)(C)C)cc([N+](=O)[O-])c(C)c1[N+](=O)[O-]` is at least 4.
1

Threshold query (48 h LC50 (-log10 mol/L) >= 4) on CC(O)CC(C)(C)O (stereo not given)
-1

Does 48 h LC50 (-log10 mol/L) meet or surpass 4 for `O[C@@H](CS)[C@@H](O)CS` ?
-1

Hi, just wondering whether `Fc1ccc([C@@H]2CCNC[C@H]2COc2ccc3c(c2)OCO3)cc1` shows 48 h LC50 (-log10 mol/L) of 4 or higher.
1

Evaluate `Clc1cc(Cl)c(Cl)c(Cl)c1` : 48 h LC50 (-log10 mol/L) at minimum 4?
1

Evaluate Cc1c(OCC(F)(F)F)ccnc1CS(=O)c1nc2ccccc2[nH]1 (stereo not given) : 48 h LC50 (-log10 mol/L) at minimum 4?
1

Hi team, for `CNC(=O)Oc1cccc2c1OC(C)(C)O2` , is the recorded 48 h LC50 (-log10 mol/L) at or above 4?
1

Hello, I need to know if `CN=C(NC#N)NCCSCc1nc[nH]c1C` has measured 48 h LC50 (-log10 mol/L) not below 4. Thanks!
-1

API: above_or_equal(metric=48 h LC50 (-log10 mol/L), cutoff=4) for item `Cc1ccc(Cl)cc1`
1

Decide: is the reported value of 48 h LC50 (-log10 mol/L) for `O=C(O)c1cc(Oc2ccc(C(F)(F)F)cc2Cl)ccc1[N+](=O)[O-]` equal to or greater than 4?
1

Hi, just wondering whether CCCC(=O)Nc1ccc(OCC(O)CNC(C)C)c(C(C)=O)c1 (stereo not given) shows 48 h LC50 (-log10 mol/L) of 4 or higher.
-1

Dear colleague, could you confirm whether `CCN(CC)C(=O)c1cccc(C)c1` has 48 h LC50 (-log10 mol/L) at or above 4?
-1

Does the compound `CCCCCCCCCc1ccc(O)cc1` have recorded 48 h LC50 (-log10 mol/L) that is 4 or more?
1

Entry `ClC=CCCl` : is its 48 h LC50 (-log10 mol/L) no less than 4?
1

Test whether the compound `CCC(Cl)Cl` records 48 h LC50 (-log10 mol/L) of 4 or higher.
-1

# check: 48 h LC50 (-log10 mol/L) of `CC#N` is greater than or equal to 4
-1

Exam item: decide whether the reported 48 h LC50 (-log10 mol/L) for `CC1(C)[C@H](/C=C(\Cl)C(F)(F)F)[C@@H]1C(=O)O[C@@H](C#N)c1cccc(Oc2ccccc2)c1` is at least 4.
1

Could you verify whether the entry `CCNC(=S)NCC` shows 48 h LC50 (-log10 mol/L) of no less than 4?
-1

Can `ClC1=C(Cl)[C@]2(Cl)[C@H]3[C@H]([C@H](Cl)[C@]4(Cl)O[C@H]34)[C@@]1(Cl)C2(Cl)Cl` be said to have 48 h LC50 (-log10 mol/L) at or above 4?
1

Please check the record `ClC1=C(Cl)[C@]2(Cl)[C@@H]3[C@@H](Cl)[C@H]4O[C@H]4[C@@H]3[C@@]1(Cl)C2(Cl)Cl` and state if its 48 h LC50 (-log10 mol/L) is at or above 4.
1

Hello, I need to know if `COP(=S)(OC)Oc1ccc(SC)c(C)c1` has measured 48 h LC50 (-log10 mol/L) not below 4. Thanks!
1

Assess whether reported 48 h LC50 (-log10 mol/L) for `Cc1ncc2n1-c1ccc(Cl)cc1C(c1ccccc1F)=NC2` sits at 4 or higher.
1

48 h LC50 (-log10 mol/L) >= 4 for `NC(=O)N/N=C/c1ccc([N+](=O)[O-])o1` ?
-1

Kindly determine if 48 h LC50 (-log10 mol/L) recorded for `O=C1CN(/N=C/c2ccc([N+](=O)[O-])o2)C(=O)N1` is above or exactly 4.
-1

Does 48 h LC50 (-log10 mol/L) meet or surpass 4 for `OCCOCCOCCO` ?
-1

Quick check: does `COP(=S)(OC)Oc1ccc([N+](=O)[O-])cc1` have 48 h LC50 (-log10 mol/L) greater than or equal to 4?
1

Check if 48 h LC50 (-log10 mol/L) >= 4 (inclusive). Item: `CCOc1ccc2c(c1)C(C)=CC(C)(C)N2`
1

Item `c1ccc2cc3c(ccc4ccccc43)cc2c1` with 48 h LC50 (-log10 mol/L) of 4 or above?
1

Tell me whether 48 h LC50 (-log10 mol/L) is at least 4 here: `Clc1ccccc1-c1ccccc1`
1

Exam item: decide whether the reported 48 h LC50 (-log10 mol/L) for `Clc1ccc(-c2ccc(Cl)c(Cl)c2Cl)c(Cl)c1Cl` is at least 4.
1

Identify whether the reported 48 h LC50 (-log10 mol/L) of the following compound is 4 or greater: `Cc1ccc(C)cc1`
-1
